Exercise: for every item that follows, state its recorded self-aminoacylation.
Test system: biotinyl-Phe-oxazolone
PROTOCOL TEXT: self-aminoacylation, catalytic enhancement (BFO) (fold over background); higher = more active; k-Seq, kA / k0A0; sequences stand for … in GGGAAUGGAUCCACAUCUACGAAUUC…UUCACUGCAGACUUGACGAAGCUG
Fewer inactive variants are shown than the library holds.
Provide a numeric answer; units are not to be included.

Data request: Which self-aminoacylation is listed for CUACUUCAUACAAUCGGUCCG [Fam1A.1 aminoacylation ribozyme variant] ?
Data returned: 0.5

Data request: Now the same for AAAUUUGCUAAUAGUCGCAAC [Fam3.1 aminoacylation ribozyme variant]
Data returned: 1.64

Data request: Now the same for AAGUCUGCUAAUAGUGGCAAG [Fam3.1 aminoacylation ribozyme variant]
Data returned: 3.1

Data request: Now the same for GCACACUUCCAGCAAUCGGUC [Fam1B.1 aminoacylation ribozyme variant]
Data returned: 1.1

Data request: Now the same for CUUCAACUAGGUCAUCGGGUG [Fam2.2 aminoacylation ribozyme variant]
Data returned: 31.8

Data request: Now the same for AUUACCCAGGUCAUCGACUGA [Fam2.1 aminoacylation ribozyme variant]
Data returned: 0.774

Data request: Now the same for AUUACCCUGGCCAUCGAGUGA [Fam2.1 aminoacylation ribozyme variant]
Data returned: 11.7

Data request: Now the same for AUUCACAUAGGUCAUCGGCUG [Fam2.2 aminoacylation ribozyme variant]
Data returned: 7.68

Data request: Now the same for CCACUUCAAACAAUCGGUCUC [Fam1A.1 aminoacylation ribozyme variant]
Data returned: 75.8

Data request: Now the same for AUUAUUCUGGUCAUCGAGUGA [Fam2.1 aminoacylation ribozyme variant]
Data returned: 22.9

Data request: Now the same for AUUCACCUAGAGCAUCGGGUG [Fam2.2 aminoacylation ribozyme variant]
Data returned: 12.4

Data request: Now the same for AUUGACCUAGGUCAUCGUGUG [Fam2.2 aminoacylation ribozyme variant]
Data returned: 4.26

Data request: Now the same for AAGUUCGCUGAUAGUCGCAAG [Fam3.1 aminoacylation ribozyme variant]
Data returned: 5.75

Data request: Now the same for ACACACUUCAAGCCAUCGGUC [Fam1B.1 aminoacylation ribozyme variant]
Data returned: 2.41

Data request: Now the same for ACUACCCUAGUCAUCGAGUGA [Fam2.1 aminoacylation ribozyme variant]
Data returned: 8.71

Data request: Now the same for CUACUCCAAACACUCGGUCUG [Fam1A.1 aminoacylation ribozyme variant]
Data returned: 1.15

Data request: Now the same for AAUACCCUGGGCAUCGAGUGA [Fam2.1 aminoacylation ribozyme variant]
Data returned: 8.76

Data request: Now the same for AUUCACGUAGGUCAGCGGGUG [Fam2.2 aminoacylation ribozyme variant]
Data returned: 16.1

Data request: Now the same for AUUACCCUGGUCUUCGACUGA [Fam2.1 aminoacylation ribozyme variant]
Data returned: 0.68

Data request: Now the same for CUACUCCAAAGAAUCGGUCUG [Fam1A.1 aminoacylation ribozyme variant]
Data returned: 0.807

Data request: Now the same for AUUACCAUGGUCAUCGCGUGA [Fam2.1 aminoacylation ribozyme variant]
Data returned: 189

Data request: Now the same for CCCCACUUCAAGCAAUCGAUC [Fam1B.1 aminoacylation ribozyme variant]
Data returned: 2.79

Data request: Now the same for AUUCACCUACGACAUCGGGUG [Fam2.2 aminoacylation ribozyme variant]
Data returned: 24

Data request: Now the same for AACUUUCCUAAUAGUCGCAAG [Fam3.1 aminoacylation ribozyme variant]
Data returned: 2.29

Data request: Now the same for CUAAUUCAAACAAUCGGUCGG [Fam1A.1 aminoacylation ribozyme variant]
Data returned: 2.14

Data request: Now the same for GUUACCCUGAUCAUCGAGUGA [Fam2.1 aminoacylation ribozyme variant]
Data returned: 32.3

Data request: Now the same for CCACACUUCACGCAAUUGGUC [Fam1B.1 aminoacylation ribozyme variant]
Data returned: 0.859

Data request: Now the same for AGUACCCUGGUCACCGAGUGA [Fam2.1 aminoacylation ribozyme variant]
Data returned: 54.5

Data request: Now the same for AAAUUUGCUAAUAGUAGCAAG [Fam3.1 aminoacylation ribozyme variant]
Data returned: 2.63

Data request: Now the same for AUUACCCUGGUCAUCGGGUCA [Fam2.1 aminoacylation ribozyme variant]
Data returned: 22.5

Data request: Now the same for CUACUUCAUACAAUGGGUCUG [Fam1A.1 aminoacylation ribozyme variant]
Data returned: 0.65

Data request: Now the same for CCACACAUCAAGCAAUAGGUC [Fam1B.1 aminoacylation ribozyme variant]
Data returned: 1.52

Data request: Now the same for AAGUUUGCUAAUAGUCGCGAA [Fam3.1 aminoacylation ribozyme variant]
Data returned: 6.39

Data request: Now the same for CCACACUUCAAGCUAUCGGUA [Fam1B.1 aminoacylation ribozyme variant]
Data returned: 0.934

Data request: Now the same for CUACUUCAAACAAUCGAUCAG [Fam1A.1 aminoacylation ribozyme variant]
Data returned: 1.15
